# koff values compiled below
# assay-target: T1, CTNI quality control recombinant protein (PK2-CTNI-1, 170120, produced by the applicant) (human, UniProt P19429 2-210, limits assumed)
# T1 construct: also called cardiac troponin I
# T1 sequence (P19429 2-210 limits assumed): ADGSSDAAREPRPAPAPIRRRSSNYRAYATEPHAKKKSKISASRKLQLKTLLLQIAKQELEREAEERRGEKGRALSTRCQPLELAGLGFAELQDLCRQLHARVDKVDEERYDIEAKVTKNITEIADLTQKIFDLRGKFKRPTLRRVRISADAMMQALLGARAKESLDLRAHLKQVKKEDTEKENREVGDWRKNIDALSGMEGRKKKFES
# experiment-description: AMC sensor kinetics, antibody captured, cTnI analyte
The reply should be a number in s⁻¹, with the unit left off.

[
  {
    "binder": "Mutation 1-10 (antibody, V domains shown, built as for Mutation 1) VH: EVQLQQSGAELVKPGASVKLSCTASGFNIKDYFMHWMKQRTEQGLDWIGRIDPEDAETRYAPEFQGKATITADTSSNTAYLQLSTLTSEDTAVYYCARYYSSYLPFVYWGQGTLVTASA VL: DVVMTQTPLSLSVSLGDQASISCRSSQSIIYSNRHTYLHWYLQKPGQSPKLLIFQLSNRFSGVPDRFSGSGSGTDFTLKINRVEAEDLGVYFCSQSTHLPYTFGSGTKLEIKR",
    "units": "s⁻¹",
    "koff": 0.000413
  },
  {
    "binder": "Mutation 1-39 (antibody, V domains shown, built as for Mutation 1) VH: EVQLQQSGAELVKPGASVKLSCTASGFNLKDYFMHWMKQRTEQGLDWIGRIDPEDGETRYAPEFQGKATITADTSSNTAYLQLSTLTSEDTAVYYCARYYSSYVPFVYWGQGTLVTASA VL: DVVMTQTPLSLSVSLGDQASISCRSSQSLIYSNRHTYLHWYLQKPGQSPKLLIFQVSNRFSGVPDRFSGSGSGTDFTLKINRVEAEDLGVYFCSQSTHLPYTFGSGTKLEIKR",
    "units": "s⁻¹",
    "koff": 0.000469
  },
  {
    "binder": "Mutation 1-24 (antibody, V domains shown, built as for Mutation 1) VH: EVQLQQSGAELVKPGASVKLSCTASGFNLKDYFMHWMKQRTEQGLDWIGRIDPEDAETRYAPEFQGKATITADTSSNTAYLQLSTLTSEDTAVYYCARYYSSYVPFVYWGQGTLVTASA VL: DVVMTQTPLSLSVSLGDQASISCRSSQSLLYSNRHTYLHWYLQKPGQSPKLLIFQVSNRFSGVPDRFSGSGSGTDFTLKINRVEAEDLGVYFCSQSTHIPFTFGSGTKLEIKR",
    "units": "s⁻¹",
    "koff": 0.000259
  }
]

Consider the binder Mutation 1-30 (antibody, V domains shown, built as for Mutation 1) VH: EVQLQQSGAELVKPGASVKLSCTASGFNIKDYFMHWMKQRTEQGLDWIGRIDPEDAETRYAPEFQGKATITADTSSNTAYLQLSTLTSEDTAVYYCARYYSSYLPFVYWGQGTLVTASA VL: DVVMTQTPLSLSVSLGDQASISCRSSQSIIYSNRHTYLHWYLQKPGQSPKLLIFQLSNRFSGVPDRFSGSGSGTDFTLKINRVEAEDLGVYFCSQSTHIPFTFGSGTKLEIKR . State its measured koff.
0.000362

Consider the binder Mutation 1-38 (antibody, V domains shown, built as for Mutation 1) VH: EVQLQQSGAELVKPGASVKLSCTASGFNIKDYYMHWMKQRTEQGLDWIGRIDPEDAETKYAPEFQGKATITADTSSNTAYLQLSTLTSEDTAVYYCARYYSSYIPFVYWGQGTLVTASA VL: DVVMTQTPLSLSVSLGDQASISCRSSQSLIYSNRHTYLHWYLQKPGQSPKLLIFQISNRFSGVPDRFSGSGSGTDFTLKINRVEAEDLGVYFCSQSTHIPFTFGSGTKLEIKR . State its measured koff.
0.000103

Consider the binder Mutation 1-41 (antibody, V domains shown, built as for Mutation 1) VH: EVQLQQSGAELVKPGASVKLSCTASGFNIKDYYMHWMKQRTEQGLDWIGRIDPEDGETRYAPEFQGKATITADTSSNTAYLQLSTLTSEDTAVYYCARYYSSYIPFVYWGQGTLVTASA VL: DVVMTQTPLSLSVSLGDQASISCRSSQSILYSNRHTYLHWYLQKPGQSPKLLIFQISNRFSGVPDRFSGSGSGTDFTLKINRVEAEDLGVYFCSQSTHIPYTFGSGTKLEIKR . State its measured koff.
0.000393

Consider the binder Mutation 1-26 (antibody, V domains shown, built as for Mutation 1) VH: EVQLQQSGAELVKPGASVKLSCTASGFNIKDYFMHWMKQRTEQGLDWIGRIDPEDGETKYAPEFQGKATITADTSSNTAYLQLSTLTSEDTAVYYCARYYSSYLPFVYWGQGTLVTASA VL: DVVMTQTPLSLSVSLGDQASISCRSSQSILYSNRHTYLHWYLQKPGQSPKLLIFQLSNRFSGVPDRFSGSGSGTDFTLKINRVEAEDLGVYFCSQSTHLPFTFGSGTKLEIKR . State its measured koff.
0.00023

Consider the binder Mutation 1-42 (antibody, V domains shown, built as for Mutation 1) VH: EVQLQQSGAELVKPGASVKLSCTASGFNLKDYFMHWMKQRTEQGLDWIGRIDPEDGETKYAPEFQGKATITADTSSNTAYLQLSTLTSEDTAVYYCARYYSSYLPFVYWGQGTLVTASA VL: DVVMTQTPLSLSVSLGDQASISCRSSQSLLYSNRHTYLHWYLQKPGQSPKLLIFQLSNRFSGVPDRFSGSGSGTDFTLKINRVEAEDLGVYFCSQSTHLPYTFGSGTKLEIKR . State its measured koff.
0.00018

Consider the binder Mutation 1-4 (antibody, V domains shown, built as for Mutation 1) VH: EVQLQQSGAELVKPGASVKLSCTASGFNLKDYFMHWMKQRTEQGLDWIGRIDPEDAETKYAPEFQGKATITADTSSNTAYLQLSTLTSEDTAVYYCARYYSSYVPFVYWGQGTLVTASA VL: DVVMTQTPLSLSVSLGDQASISCRSSQSLLYSNRHTYLHWYLQKPGQSPKLLIFQVSNRFSGVPDRFSGSGSGTDFTLKINRVEAEDLGVYFCSQSTHLPFTFGSGTKLEIKR . State its measured koff.
0.00023

Consider the binder Mutation 1-51 (antibody, V domains shown, built as for Mutation 1) VH: EVQLQQSGAELVKPGASVKLSCTASGFNLKDYYMHWMKQRTEQGLDWIGRIDPEDGETRYAPEFQGKATITADTSSNTAYLQLSTLTSEDTAVYYCARYYSSYLPFVYWGQGTLVTASA VL: DVVMTQTPLSLSVSLGDQASISCRSSQSLIYSNRHTYLHWYLQKPGQSPKLLIFQLSNRFSGVPDRFSGSGSGTDFTLKINRVEAEDLGVYFCSQSTHLPYTFGSGTKLEIKR . State its measured koff.
7.54e-05

The origin of these recorded values is patent US20210340231A1.
